Just for reference, patent US20240116922A1 is where these values come from.

# procedure-text: Kpuu assay (in vivo brain-to-plasma unbound partition)
# test-settings: brain (unbound) versus plasma (unbound); intravenous infusion 4 to 24 h; unbound brain/plasma ratio; read-out: Brain Kpu, u
quantity-measured: Kpuu (unbound brain-to-plasma partition coefficient)
Number, no unit, nothing else.

Below, 2 compounds whose answers are already recorded.
compound	measured-result
CC(C)Oc1cc2nc([C@@]34CC[C@@](CF)(C3)OC4)cn2cc1C(=O)Nc1cccn(C2CC2)c1=O (single isomer, unassigned)	0.66
CC(C)Oc1cc2nc(C34COC(C)(C3)C4)cn2cc1C(=O)Nc1cccn(C)c1=O [Comparator 1D, reference compound]	0.9

*Q* # Kpuu (unbound brain-to-plasma partition coefficient) lookup, item CC(C)Oc1nc2nc([C@@]34CC[C@@](C)(C3)OC4)cn2cc1C(=O)Nc1cccn(C)c1=O [Comparator 4D, reference compound]
*A* 0.2
